Where do the numbers come from? From ChEMBL document CHEMBL1127346.

Recorded cAMP activity index values (Melatonin receptor (Ovis aries)) are given below.
RECORDED ENDPOINT: cAMP activity index

Some entries whose results are on file:
COc1ccc2c(CCNC(C)=O)cccc2c1    0.92
COc1ccc2c(CCNC(=O)C3CC3)cccc2c1    0.68
COc1ccc2cccc(CCNC(=O)CCc3ccccc3)c2c1    0
COc1ccc2occ(CCNC(=O)C3CC3)c2c1    1.45

[A] COc1ccc2scc(CCNC(=O)C3CC3)c2c1
[B] CCCCCCC(=O)NCCc1cccc2ccc(OC)cc12
[C] COc1ccc2cccc(CCN(C)C(=O)C3CCC3)c2c1
query: Arrange the 3 compounds by rising cAMP activity index, starting with the smallest. Present the labels in the sequence the task asks for.
result: C, B, A
(C: 0.04, B: 0.18, A: 1.01)

[I] CCCC(=O)NCCc1cccc2ccc(OC)cc12
[II] COc1ccc2cccc(CCNC(=O)C3CCC3)c2c1
query: Lab note: check whether I or II shows the higher recorded cAMP activity index. // return label of chosen record
result: I
